Listed next: entries and their corresponding log10(IC50).
# TGT: Transient receptor potential cation channel subfamily M member 8 (Rattus norvegicus, UniProt Q8R455)
# Sequence (Q8R455 whole entry): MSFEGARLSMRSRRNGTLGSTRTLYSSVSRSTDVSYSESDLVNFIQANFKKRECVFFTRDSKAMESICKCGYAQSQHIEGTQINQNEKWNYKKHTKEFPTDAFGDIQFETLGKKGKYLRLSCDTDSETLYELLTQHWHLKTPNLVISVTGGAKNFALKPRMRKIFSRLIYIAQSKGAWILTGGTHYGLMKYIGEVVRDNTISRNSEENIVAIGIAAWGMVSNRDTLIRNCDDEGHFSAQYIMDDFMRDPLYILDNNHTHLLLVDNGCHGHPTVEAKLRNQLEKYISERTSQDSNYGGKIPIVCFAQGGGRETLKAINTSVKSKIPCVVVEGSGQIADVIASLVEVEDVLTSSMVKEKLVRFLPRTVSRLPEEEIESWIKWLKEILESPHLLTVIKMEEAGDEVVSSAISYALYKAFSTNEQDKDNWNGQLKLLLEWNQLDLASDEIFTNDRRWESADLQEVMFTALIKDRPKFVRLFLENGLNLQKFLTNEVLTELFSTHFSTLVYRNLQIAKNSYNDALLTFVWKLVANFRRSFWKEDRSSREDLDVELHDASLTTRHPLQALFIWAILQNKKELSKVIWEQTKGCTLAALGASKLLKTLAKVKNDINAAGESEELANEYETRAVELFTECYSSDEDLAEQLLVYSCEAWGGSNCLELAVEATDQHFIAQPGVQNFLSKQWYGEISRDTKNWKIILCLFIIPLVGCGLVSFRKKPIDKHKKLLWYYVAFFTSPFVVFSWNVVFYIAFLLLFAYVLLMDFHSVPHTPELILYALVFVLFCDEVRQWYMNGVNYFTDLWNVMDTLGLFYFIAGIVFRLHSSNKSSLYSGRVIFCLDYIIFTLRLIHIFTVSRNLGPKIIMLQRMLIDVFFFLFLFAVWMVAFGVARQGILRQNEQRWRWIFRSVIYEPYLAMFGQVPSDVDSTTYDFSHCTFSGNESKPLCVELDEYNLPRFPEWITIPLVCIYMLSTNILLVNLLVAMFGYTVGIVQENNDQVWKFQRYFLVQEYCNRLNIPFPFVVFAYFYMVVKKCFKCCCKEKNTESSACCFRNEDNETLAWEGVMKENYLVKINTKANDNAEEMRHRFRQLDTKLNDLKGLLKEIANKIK
# TEST DESCRIPTION: Antagonist activity at rat TRMP8 receptor expressed in HEK293 cells assessed as icilin-induced calcium elevation
# Assay type: functional, cell-based
OBSERVABLE: log10(IC50) (log10 of the value in nM)

INSERT INTO assay_data (molecular_string, measured_result) VALUES
  ('CC(C)[C@@H]1CC[C@@H](C)C[C@H]1NC(=O)Oc1cccc(Cl)c1', 2.70),
  ('CC(C)[C@@H]1CC[C@@H](C)C[C@H]1NC(=O)Oc1ccc(C(F)(F)F)cc1', 2.85),
  ('CC(C)[C@@H]1CC[C@@H](C)C[C@H]1NC(=O)Oc1cccc(C(C)(C)C)c1', 3.52),
  ('CC(C)[C@@H]1CC[C@@H](C)C[C@H]1NC(=O)Oc1ccc(-c2ccccc2)cc1', 3.87),
  ('Cc1ccc(C(=O)N[C@@H]2C[C@H](C)CC[C@H]2C(C)C)cc1', 3.40),
  ('COc1ccc(OC(=O)N[C@@H]2C[C@H](C)CC[C@H]2C(C)C)cc1', 3.41),
  ('CC(C)[C@@H]1CC[C@@H](C)C[C@H]1NC(=O)Oc1ccc(Cl)cc1', 3.61),
  ('Cc1ccc(OC(=O)N[C@@H]2C[C@H](C)CC[C@H]2C(C)C)cc1', 2.85),
  ('CC(C)[C@@H]1CC[C@@H](C)C[C@H]1NC(=O)c1ccc(C(C)(C)C)cc1', 4.78),
  ('CC(C)[C@@H]1CC[C@@H](C)C[C@H]1NC(=O)c1ccc(-c2ccccc2)cc1', 1.70),
  ('CC(C)[C@@H]1CC[C@@H](C)C[C@H]1NC(=O)Oc1cccc(-c2ccccc2)c1', 3.18),
  ('CC(C)[C@@H]1CC[C@@H](C)C[C@H]1NC(=O)Oc1ccc(C(C)(C)C)cc1', 1.90),
  ('CC(C)[C@@H]1CC[C@@H](C)C[C@H]1NC(=O)c1ccc(Cl)cc1', 3.20),
  ('CC(C)[C@@H]1CC[C@@H](C)C[C@H]1NC(=O)c1cccc(Cl)c1', 3.32),
  ('COc1cc(CNC(=O)N[C@@H]2C[C@H](C)CC[C@H]2C(C)C)ccc1O', 4.30),
  ('COc1ccc(C(=O)N[C@@H]2C[C@H](C)CC[C@H]2C(C)C)cc1', 3.98),
  ('CC(C)[C@@H]1CC[C@@H](C)C[C@H]1NC(=O)Oc1cccc(C(F)(F)F)c1', 2.78),
  ('CC(C)[C@@H]1CC[C@@H](C)C[C@H]1NC(=O)NCCc1c[nH]c2ccc(O)cc12', 4.49),
  ('CC(C)[C@@H]1CC[C@@H](C)C[C@H]1NC(=O)CCCCCCc1ccccc1', 2.60),
  ('CC(C)[C@@H]1CC[C@@H](C)C[C@H]1NC(=O)CCCCCCCc1ccccc1', 2.70);

###

Listed next: entries and their corresponding EC50.
# TGT: Transient receptor potential cation channel subfamily V member 1 (Homo sapiens, UniProt Q8NER1)
# Sequence (Q8NER1 whole entry): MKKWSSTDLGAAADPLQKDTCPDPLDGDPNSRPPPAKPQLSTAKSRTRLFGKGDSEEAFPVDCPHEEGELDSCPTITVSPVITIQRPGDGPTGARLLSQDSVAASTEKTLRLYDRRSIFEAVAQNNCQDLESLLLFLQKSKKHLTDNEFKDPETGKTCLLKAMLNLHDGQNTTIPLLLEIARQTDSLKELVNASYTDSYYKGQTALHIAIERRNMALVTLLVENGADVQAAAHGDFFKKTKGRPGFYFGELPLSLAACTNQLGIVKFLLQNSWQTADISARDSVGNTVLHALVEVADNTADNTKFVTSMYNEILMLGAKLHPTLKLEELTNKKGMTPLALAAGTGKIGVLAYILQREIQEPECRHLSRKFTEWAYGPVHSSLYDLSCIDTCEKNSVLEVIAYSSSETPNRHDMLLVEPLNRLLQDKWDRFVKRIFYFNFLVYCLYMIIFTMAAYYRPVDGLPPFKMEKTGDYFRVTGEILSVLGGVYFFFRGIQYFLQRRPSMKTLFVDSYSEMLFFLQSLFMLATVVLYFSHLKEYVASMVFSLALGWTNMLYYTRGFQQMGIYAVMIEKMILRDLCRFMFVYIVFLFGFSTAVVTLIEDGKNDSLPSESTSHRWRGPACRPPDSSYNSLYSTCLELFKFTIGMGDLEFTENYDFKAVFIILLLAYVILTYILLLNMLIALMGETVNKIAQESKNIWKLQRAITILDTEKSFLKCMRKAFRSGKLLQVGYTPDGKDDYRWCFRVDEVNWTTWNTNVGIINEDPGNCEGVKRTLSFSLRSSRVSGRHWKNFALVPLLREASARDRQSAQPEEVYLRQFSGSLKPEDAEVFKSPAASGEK
# TEST DESCRIPTION: Agonist activity at human TRPV1 receptor expressed in HEK293 cells assessed as intracellular calcium stimulation
OBSERVABLE: EC50 (µM)

INSERT INTO measurements (molecular_string, output_unit, measured_result) VALUES
  ('CC(C)[C@@H]1CC[C@@H](C)C[C@H]1NC(=O)Oc1cccc(Cl)c1', 'µM', 19.2),
  ('CC(C)[C@@H]1CC[C@@H](C)C[C@H]1NC(=O)c1cccc(Cl)c1', 'µM', 7.6),
  ('CC(C)[C@@H]1CC[C@@H](C)C[C@H]1NC(=O)Oc1cccc(-c2ccccc2)c1', 'µM', 7.1),
  ('CC(C)[C@@H]1CC[C@@H](C)C[C@H]1NC(=O)c1ccc(C(C)(C)C)cc1', 'µM', 0.25),
  ('CC(C)[C@@H]1CC[C@@H](C)C[C@H]1NC(=O)NC12CC3CC(CC(C3)C1)C2', 'µM', 1),
  ('CC(C)[C@@H]1CC[C@@H](C)C[C@H]1NC(=O)Oc1cccc(C(C)(C)C)c1', 'µM', 5.8),
  ('COc1cc(CNC(=O)N[C@@H]2C[C@H](C)CC[C@H]2C(C)C)ccc1O', 'µM', 0.23),
  ('CC(C)[C@@H]1CC[C@@H](C)C[C@H]1NC(=O)NCCc1c[nH]c2ccc(O)cc12', 'µM', 52.2),
  ('CC(C)[C@@H]1CC[C@@H](C)C[C@H]1NC(=O)Oc1ccc(C(C)(C)C)cc1', 'µM', 18.3);
